Recorded values, source patent US20210277015A1.

target entity: recombinant human Meningioma Expressed Antigen 5 (MGEA5), also referred to as O-GlcNAcase (OGA) (Homo sapiens)
Construct: Full length OGA enzyme was purchased at OriGene (cat #TP322411); purchased OriGene TP322411
Sequence (O60502 whole entry): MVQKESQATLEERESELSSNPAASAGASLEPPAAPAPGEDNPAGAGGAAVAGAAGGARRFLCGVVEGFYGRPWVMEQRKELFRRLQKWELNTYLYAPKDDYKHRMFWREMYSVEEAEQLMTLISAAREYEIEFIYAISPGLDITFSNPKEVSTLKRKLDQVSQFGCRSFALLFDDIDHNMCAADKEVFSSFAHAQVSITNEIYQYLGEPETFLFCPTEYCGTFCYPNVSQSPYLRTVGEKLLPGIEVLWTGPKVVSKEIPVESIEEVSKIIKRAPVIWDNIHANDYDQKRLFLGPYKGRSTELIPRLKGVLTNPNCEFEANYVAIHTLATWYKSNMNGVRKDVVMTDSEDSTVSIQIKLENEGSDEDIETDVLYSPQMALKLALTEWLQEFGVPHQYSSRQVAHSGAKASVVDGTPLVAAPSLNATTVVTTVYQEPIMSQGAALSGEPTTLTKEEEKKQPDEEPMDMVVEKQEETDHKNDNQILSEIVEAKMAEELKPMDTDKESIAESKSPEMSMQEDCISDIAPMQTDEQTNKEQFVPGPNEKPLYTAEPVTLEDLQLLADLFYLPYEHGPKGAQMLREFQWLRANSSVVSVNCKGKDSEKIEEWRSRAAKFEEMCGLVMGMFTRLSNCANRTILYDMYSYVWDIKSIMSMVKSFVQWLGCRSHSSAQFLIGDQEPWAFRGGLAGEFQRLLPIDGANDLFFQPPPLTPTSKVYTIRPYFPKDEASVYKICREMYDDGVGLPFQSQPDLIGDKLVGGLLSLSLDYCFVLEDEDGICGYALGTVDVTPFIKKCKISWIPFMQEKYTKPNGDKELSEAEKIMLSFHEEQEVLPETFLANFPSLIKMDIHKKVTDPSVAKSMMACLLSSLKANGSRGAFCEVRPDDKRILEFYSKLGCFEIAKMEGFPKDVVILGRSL
method notes: OGA biochemical assay (inhibition of FM-GlcNAc hydrolysis, fluorescence)
condition context: FM-GlcNAc substrate, maximal effect, read-out: Enzymatic Emax (%)
// Emax lookup, one value per entry
parameter: Emax (%)

{"columns": ["compound", "value unit", "readout number"],
 "data": [
  ["Cc1cc(O[C@H]2CCN(C(C)c3ccc4c(n3)OCCO4)C2)cc(C)n1 (mixture of isomers) [Product 70]", "%", 94],
  ["Cc1cc(C[C@H]2CCN(C(C)c3ccc4c(n3)OCCO4)C2)cc(C(F)(F)F)n1 (stereo partly shown) [Product 5]", "%", 100],
  ["COc1cc(C[C@H]2CN([C@@H](C)c3ccc4c(n3)OCCO4)C[C@@H]2C)cc(C)n1 (stereo in doubt) [Product 123]", "%", 100],
  ["COc1cc(C[C@H]2CCN(C(C)c3nc4c(cc3F)CCO4)C2)cc(C)n1 (mixture of isomers) [Product 83]", "%", 102],
  ["COc1cc(C[C@H]2CCN(C(C)c3cnc4c(c3)C(=O)N(C)CC4)C2)cc(C)n1 (stereo partly shown) [Product 33]", "%", 102],
  ["COc1cc(C[C@@H]2CCN(C(C)c3ccc4c(n3)OCCO4)C2)cc(C)n1 (mixture of isomers) [Product 89]", "%", 100],
  ["Cc1cc(O[C@@H]2CCN(C(C)c3nc4c(cc3F)CCO4)C2)cc(C)n1 (single isomer, unassigned) [Product 18]", "%", 98],
  ["COc1cc(C[C@H]2CN([C@H](C)c3ccc4c(n3)OCCO4)C[C@@H]2C)cc(C)n1 (stereo in doubt) [Product 121]", "%", 99],
  ["Cc1cc(C[C@@H]2CCN(C(C)c3nc4c(cc3F)OCCO4)C2)cc(C)n1 (mixture of isomers) [Product 79]", "%", 98],
  ["COc1cc(C[C@H]2CCN(C(C)c3nc4c(cc3F)CCO4)C2)cc(C)n1 (single isomer, unassigned) [Product 84]", "%", 102]
]}
